- System: Plasmodium berghei
- assayRemarks: Luciferase/luciferin-expressing antifolate-resistant parasites were used to infect a culture of HepG2 cells that were pre-incubated with compounds. Infected hepatocytes emit light due to the luciferase reaction. Assay results are presented as the percent inhibition of light emission compared to control. […]
- Assay type: functional
- experimentalContext: sporozoite, PBLUC_HILL_SLOPE 7.56, PBLUC_R_SQUARED 0.487, read-out: LUCIFERASE INFECTION ASSAY - IC50
endpointName: IC50 (µM)
Supply the numeric figure in µM, leaving out any unit text.

Fill in IC50 for record O=C(Nc1ccccc1-c1nc(=O)c2ccccc2[nH]1)C12CC3CC(CC(C3)C1)C2
9.01

###

- Test system: Plasmodium berghei
- assayRemarks: Luciferase/luciferin-expressing antifolate-resistant parasites were used to infect a culture of HepG2 cells that were pre-incubated with compounds. Infected hepatocytes emit light due to the luciferase reaction. Assay results are presented as the percent inhibition of light emission compared to control. […]
- Format: functional
- experimentalContext: sporozoite, HEPG2TOX_HILL_SLOPE 0.627, HEPG2TOX_R_SQUARED 0.608, PBLUC_HILL_SLOPE 1.31, PBLUC_R_SQUARED 0.795, read-out: LUCIFERASE INFECTION ASSAY - IC50
endpointName: pIC50
Note on units: pIC50 is unitless, being -log10 of a concentration expressed in mol/L.

Jot down pIC50 (Plasmodium berghei) of O=C(Cn1cnc2sccc2c1=O)c1ccc(C2CCCCC2)cc1 .
5.59

###

- Tested on: Plasmodium berghei
- assayRemarks: Luciferase/luciferin-expressing antifolate-resistant parasites were used to infect a culture of HepG2 cells that were pre-incubated with compounds. Infected hepatocytes emit light due to the luciferase reaction. Assay results are presented as the percent inhibition of light emission compared to control. […]
- Type: functional
- experimentalContext: sporozoite, FFLUC_HILL_SLOPE 3.31, FFLUC_R_SQUARED 0.738, HEPG2TOX_HILL_SLOPE 1.04, HEPG2TOX_R_SQUARED 0.854, PBLUC_HILL_SLOPE 3.38, PBLUC_R_SQUARED 0.26, read-out: LUCIFERASE INFECTION ASSAY - IC50
endpointName: pIC50
Note on units: pIC50 is unitless, being -log10 of a concentration expressed in mol/L.

Jot down pIC50 (Plasmodium berghei) of O=C(Nc1nc(-c2c[nH]c3ccccc23)cs1)C1CCN(S(=O)(=O)/C=C/c2ccccc2)CC1 .
5.27

###

- Test system: Plasmodium berghei
- assayRemarks: Luciferase/luciferin-expressing antifolate-resistant parasites were used to infect a culture of HepG2 cells that were pre-incubated with compounds. Infected hepatocytes emit light due to the luciferase reaction. Assay results are presented as the percent inhibition of light emission compared to control. […]
- Type: functional
- experimentalContext: sporozoite, read-out: LUCIFERASE INFECTION ASSAY - IC50
Reported IC50 values are given for each entry in this list.

Worked cases, IC50 given:
COc1ccc(-n2c(=O)c3ccccc3n3c(SCC(N)=O)nnc23)cc1	> 10 µM
Cc1cccc(N2CCN(C(=O)c3nn(-c4ccccc4)c(=O)c4ccccc34)CC2)c1C	> 10 µM
O=C(Nc1sc2c(c1CN1CCN(C(=O)c3ccco3)CC1)CCCC2)c1ccccc1F	> 10 µM
C=C1CC(=O)N(c2ccc(OC(F)(F)F)cc2)C1=O	> 12.2 µM

Fill in IC50 for record c1ccc(-c2cc3c(NCc4ccccc4CN4CCOCC4)ncnc3s2)cc1
> 10 µM
